Hello, the source for this data is patent US20230029835A1, in case you need it.

// reported EC50 for each item listed
Tgt: T1, human TSLP recombinant protein (human, UniProt Q969D9 29-159, biotinylated in the blocking and cell-binding assays (sites not given))
T1 construct: also called biotinylated human TSLP protein
Experiment description: ELISA on coated human TSLP

Binder	EC50 / nM
80D12 chimeric antibody (antibody, V domains shown) VH: QVQLKQSGPQLVRPGASVKISCKASGYSFTSYWMHWVKQRPGQGLEWIGMIDPSDSETTLNQKFKDKATLTVDKSSTTAYMQLSSPTSEDSAVYYCARSLDGYYDYWGQGTTLTVSS VL: DVQMIQSPASLSASVGETVTITCRTSENIYSYLAWYQQKQGKSPQLLVYFAKTLTDGVPSRFSGSGSGTQFSLKINSLQPEDFGSYYCQHHYGTPWTFGGGTKLEIK	0.21
79D6 chimeric antibody (antibody, V domains shown) VH: QVQLQQSGAELVMPGASVKMSCKASGYTFTGYWMHWVKQRPGQGLEWIGTIDNSDSDTTYNQKFKGKVTLTVDESSSTAYMQLSSLTSEDSAVYYCARSVDGYLDYWGQGTTLTVSS VL: DIQMIQSPASLSASVGETVTITCRASENIYSYLAWYQQIQGKSPQLLVYYAKTLPEGVPSRFSGSGSGTQFSLKINSLQPEDFGSYYCQHHYGTPWTFGGGTKLEIK	0.58
76A8 chimeric antibody (antibody, V domains shown) VH: QVQLQQSGPQLVRPGASVKISCKASGYSFTSYWMHWVKQRPGQGLEWIGLIDPSDSETGLNQRFKDKATLTVDNPSSTAYMQLSSPTSEDSAVYYCARSLDGYYDYWGQGTTLTVSS VL: DIQMIQSPASLSASVGETVTITCRASGNIHNYLAWYQQKQGKSPQLLVYNAKTLADGVPSRFSGSGSGTQYSLKINSLQPEDFGSYYCQHFWSTPWTFGGGTRLEIK	0.26
80E11 chimeric antibody (antibody, V domains shown) VH: QVQLQQSGPQLVRPGASVKISCKASGYSFTSYWMHWVKQRPGQGLEWIGVIDPSDSETILNQKFKDKATLTVDKSSSTAYMQFSSPTSEDSAVYYCARSLDGYYDYWGQGTTLTVSS VL: DIQMTQSPASLSASVGETVTITCRAGENIYSYLAWYQQKQGKSPQLLVYNAKTLAEGVPSRFSGSASGTQFSLKINSLQPEDFGSYYCQHFWGTPWAFGGGTRLEIK	0.15
